The measured values listed here are drawn from PubChem BioAssay (Tox21).

Tested on: thyroid hormone receptor (rat, GH3 cells)
PROTOCOL_DESCRIPTION: qHTS assay to identify small molecule agonists of the thyroid receptor (TR) signaling pathway (AID 743066)
CONDITION_LABEL: GH3.TRE-Luc cells, TR agonist luciferase, 24 h; series mostly up to 83.9 µM
Inconclusive results are not listed. Calls of active or inactive are those of the source. The call rests on the fitted dose curve.
Classes used: YES (active), NO (inactive)

{"CHEMICAL_SMILES": "NC(=Nc1ccccc1)Nc1ccccc1", "ASSIGNED_CATEGORY": "NO"}
{"CHEMICAL_SMILES": "COc1ccc(COC(C)=O)cc1", "ASSIGNED_CATEGORY": "NO"}
{"CHEMICAL_SMILES": "CC(C)(C)c1cc(C(C)(C)C)c(O)c(C(C)(C)C)c1", "ASSIGNED_CATEGORY": "YES"}
{"CHEMICAL_SMILES": "O=C(O)CP(=O)(O)O", "ASSIGNED_CATEGORY": "NO"}
{"CHEMICAL_SMILES": "c1cnc2cc3c(cc2n1)C1CNCC3C1", "ASSIGNED_CATEGORY": "NO"}
{"CHEMICAL_SMILES": "CC(=O)N[C@@H](CS)C(=O)O", "ASSIGNED_CATEGORY": "NO"}
{"CHEMICAL_SMILES": "CC1=C(C=O)C(C)(C)CC=C1", "ASSIGNED_CATEGORY": "NO"}
{"CHEMICAL_SMILES": "CC(C)(O)CCC(C)(C)O", "ASSIGNED_CATEGORY": "NO"}

---

TARGET_OR_SYSTEM: Nuclear receptor subfamily 1 group I member 3 (Homo sapiens) (UniProt Q14994)
Sequence (Q14994 whole entry, looked up): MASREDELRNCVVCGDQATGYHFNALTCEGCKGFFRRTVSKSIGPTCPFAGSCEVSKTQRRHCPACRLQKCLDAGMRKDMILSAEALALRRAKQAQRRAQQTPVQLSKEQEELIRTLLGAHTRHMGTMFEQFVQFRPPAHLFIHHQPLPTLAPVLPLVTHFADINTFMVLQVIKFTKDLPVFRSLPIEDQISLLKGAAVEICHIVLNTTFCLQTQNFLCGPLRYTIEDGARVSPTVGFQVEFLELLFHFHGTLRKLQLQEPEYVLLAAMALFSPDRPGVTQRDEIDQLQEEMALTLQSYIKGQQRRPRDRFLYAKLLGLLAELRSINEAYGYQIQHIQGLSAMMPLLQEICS
PROTOCOL_DESCRIPTION: qHTS assay to identify small molecule agonists of the constitutive androstane receptor (CAR) signaling pathway (AID 1224839); further: nearly all actives have a fitted effect of over 15% in size;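 on activation: HepG2 cells stably carrying human CAR and a CYP2B6 luciferase reporter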
CONDITION_LABEL: HepG2 hCAR CYP2B6-luciferase, agonist mode, 24 h; series mostly up to 92.4 µM
Inconclusive results are not listed. Active and inactive are the calls of the source. Calls come from the whole dose curve; as a rule, active = well fitted activation curve with a large enough effect in the repeat runs; inconclusive = weak or mixed curves; inactive = no such curve, though single readings can be large or run the other way.
Outcome codes: true (1) = active, false (0) = inactive

{"CHEMICAL_SMILES": "CC(C)(C)c1cc(C(C)(C)C)c(O)c(C(C)(C)C)c1", "ASSIGNED_CATEGORY": "true (1)"}
{"CHEMICAL_SMILES": "[Cl][In]([Cl])[Cl]", "ASSIGNED_CATEGORY": "false (0)"}
{"CHEMICAL_SMILES": "CN1C(=O)c2ccc([N+](=O)[O-])cc2C1=O", "ASSIGNED_CATEGORY": "false (0)"}
{"CHEMICAL_SMILES": "C=CC(=O)OCCCCCCOC(=O)C=C", "ASSIGNED_CATEGORY": "false (0)"}
{"CHEMICAL_SMILES": "Oc1ccc(Cl)cc1Cc1cc(Cl)ccc1O", "ASSIGNED_CATEGORY": "false (0)"}

---

PROTOCOL_DESCRIPTION: qHTS assay to identify small molecule antagonists of the thyroid receptor (TR) signaling pathway - cell viability counter screen (AID 743064); further: nearly all actives have a fitted effect of over 50% in size
CONDITION_LABEL: GH3.TRE-Luc viability, CellTiter-Fluor, 24 h; series mostly up to 70.3 µM
Inconclusive results are not listed. The source made the active and inactive calls. Calls follow the shape of the dose curve; as a rule, active = well fitted cell-killing curve with a large enough effect in the repeat runs; inconclusive = weak or mixed curves, or effect the other way; inactive = no such curve, though single readings can be large or run the other way.
Outcomes: yes for active, no for inactive

{"COMPOUND": "COc1ccc(Cc2cnc(N)nc2N)cc1OC", "ASSIGNED_CATEGORY": "no"}
{"COMPOUND": "O=C1NCC2(CCN(CCc3ccccc3)CC2)O1", "ASSIGNED_CATEGORY": "no"}
{"COMPOUND": "CC(=O)CC(C)=O", "ASSIGNED_CATEGORY": "no"}
{"COMPOUND": "C=C(C)C(=O)O", "ASSIGNED_CATEGORY": "no"}
{"COMPOUND": "COc1nc(C)nc(Cl)c1NC1=NCCN1", "ASSIGNED_CATEGORY": "no"}
{"COMPOUND": "CC1=CC(=O)c2ccccc2C1=O", "ASSIGNED_CATEGORY": "yes"}
{"COMPOUND": "O=C(OCc1ccccc1)c1ccc(O)cc1", "ASSIGNED_CATEGORY": "no"}
{"COMPOUND": "O=S(=O)(O)c1ccc2nc(-c3ccccc3)[nH]c2c1", "ASSIGNED_CATEGORY": "no"}
{"COMPOUND": "CCCC(=O)c1ccccc1", "ASSIGNED_CATEGORY": "no"}
{"COMPOUND": "CCn1cc(C(=O)O)c(=O)c2cc(F)c(N3CCNC(C)C3)c(F)c21 (stereo not drawn)", "ASSIGNED_CATEGORY": "no"}
{"COMPOUND": "NCCCCCC(=O)O", "ASSIGNED_CATEGORY": "no"}
{"COMPOUND": "Nc1nc(=S)c2[nH]cnc2[nH]1", "ASSIGNED_CATEGORY": "no"}
{"COMPOUND": "Cc1cccc2n[nH]nc12", "ASSIGNED_CATEGORY": "no"}
{"COMPOUND": "COc1cc(C(=S)N2CCOCC2)ccc1O", "ASSIGNED_CATEGORY": "no"}
{"COMPOUND": "O=C(Nc1ccccc1SSc1ccccc1NC(=O)c1ccccc1)c1ccccc1", "ASSIGNED_CATEGORY": "yes"}
{"COMPOUND": "CC(C)CCOCc1ccccc1", "ASSIGNED_CATEGORY": "no"}
{"COMPOUND": "CNC1(C)C2CCC(C2)C1(C)C (stereo not drawn)", "ASSIGNED_CATEGORY": "no"}
{"COMPOUND": "C=C(C)C1CC=C(C)C(OC(C)=O)C1 (stereo not drawn)", "ASSIGNED_CATEGORY": "no"}
{"COMPOUND": "Cc1ccnc2c1NC(=O)c1cccnc1N2C1CC1", "ASSIGNED_CATEGORY": "no"}
{"COMPOUND": "CC(C(O)c1ccc(O)cc1)N1CCC(Cc2ccccc2)CC1 (stereo not drawn)", "ASSIGNED_CATEGORY": "yes"}
{"COMPOUND": "CC(C)(c1ccccc1)c1ccc(Nc2ccc(C(C)(C)c3ccccc3)cc2)cc1", "ASSIGNED_CATEGORY": "no"}
{"COMPOUND": "CCN(CC)C(=O)Nc1ccc(OCC(O)CNC(C)(C)C)c(C(C)=O)c1 (stereo not drawn)", "ASSIGNED_CATEGORY": "no"}
{"COMPOUND": "COc1ccc(COC(C)=O)cc1", "ASSIGNED_CATEGORY": "no"}
{"COMPOUND": "CCOc1ccccc1C(N)=O", "ASSIGNED_CATEGORY": "no"}
{"COMPOUND": "c1cc(C(c2ccc(OCC3CO3)cc2)C(c2ccc(OCC3CO3)cc2)c2ccc(OCC3CO3)cc2)ccc1OCC1CO1 (stereo not drawn)", "ASSIGNED_CATEGORY": "yes"}
{"COMPOUND": "CC1COC(=O)O1 (stereo not drawn)", "ASSIGNED_CATEGORY": "no"}
{"COMPOUND": "CCC(C)(Oc1ccc(C2(c3ccc(OC(C)(CC)C(=O)O)cc3)CCCCC2)cc1)C(=O)O (stereo not drawn)", "ASSIGNED_CATEGORY": "no"}
{"COMPOUND": "c1ccc2n[nH]nc2c1", "ASSIGNED_CATEGORY": "no"}

---

PROTOCOL_DESCRIPTION: qHTS RealTime-Glo MT Cell Viability Assay in HEK293 cells - 24 hour (AID 1224886); further: nearly all actives have a fitted effect of over 50% in size
CONDITION_LABEL: RealTime-Glo luminescence; series mostly up to 76.8 µM
Results filed as inconclusive are left out. Calls of active or inactive are those of the source. Calls come from the whole dose curve; as a rule, active = well fitted cell-killing curve with a large enough effect in the repeat runs; inconclusive = weak or mixed curves, or effect the other way; inactive = flat fitted curve, though single readings scatter.
Outcomes: true (active), false (inactive)

{"MOLECULE": "O=C(O)c1cccc(C(=O)O)c1", "ASSIGNED_CATEGORY": "false"}
{"MOLECULE": "O=C1OC2(c3ccc(O)cc3Oc3cc(O)ccc32)c2ccccc21", "ASSIGNED_CATEGORY": "false"}
{"MOLECULE": "C=CS(=O)(=O)O", "ASSIGNED_CATEGORY": "false"}
{"MOLECULE": "CC(C)(C)NCC(O)COc1ccccc1OCC1CCCO1 (stereo not drawn)", "ASSIGNED_CATEGORY": "false"}
{"MOLECULE": "NCCCCCC(=O)O", "ASSIGNED_CATEGORY": "false"}
{"MOLECULE": "O=C(Cl)c1cccc(C(=O)Cl)c1", "ASSIGNED_CATEGORY": "false"}
{"MOLECULE": "Cc1cc(C2(c3cc(C)c(O)cc3C)OS(=O)(=O)c3ccccc32)c(C)cc1O", "ASSIGNED_CATEGORY": "false"}
{"MOLECULE": "CCCCCC(=O)O[C@]1(C(C)=O)CC[C@H]2[C@@H]3CCC4=CC(=O)CC[C@]4(C)[C@H]3CC[C@@]21C", "ASSIGNED_CATEGORY": "true"}
{"MOLECULE": "CC[C@@H](N)CO", "ASSIGNED_CATEGORY": "false"}
{"MOLECULE": "CC(C(O)c1ccc(O)cc1)N1CCC(Cc2ccccc2)CC1 (stereo not drawn)", "ASSIGNED_CATEGORY": "false"}
{"MOLECULE": "CCCC(=O)c1ccccc1", "ASSIGNED_CATEGORY": "false"}
{"MOLECULE": "CN(C)c1ccc(C(=C2C=CC(=[N+](C)C)C=C2)c2ccccc2)cc1", "ASSIGNED_CATEGORY": "true"}
{"MOLECULE": "Cc1scc2c1N(C(=O)CN1CCN(C)CC1)c1ccccc1NC2=O", "ASSIGNED_CATEGORY": "false"}
{"MOLECULE": "CC(=O)O[C@]1(C(C)=O)CC[C@H]2[C@@H]3C[C@H](C)C4=CC(=O)CC[C@]4(C)[C@H]3CC[C@@]21C", "ASSIGNED_CATEGORY": "true"}
{"MOLECULE": "CCN(CC)c1ccc2c(C)cc(=O)oc2c1", "ASSIGNED_CATEGORY": "true"}
{"MOLECULE": "CN1C(=O)c2ccc([N+](=O)[O-])cc2C1=O", "ASSIGNED_CATEGORY": "false"}
{"MOLECULE": "O=C(O)c1cn(-c2ccc(F)cc2)c2cc(N3CCNCC3)c(F)cc2c1=O", "ASSIGNED_CATEGORY": "false"}
{"MOLECULE": "CCCN[C@H]1CCc2nc(N)sc2C1", "ASSIGNED_CATEGORY": "false"}
{"MOLECULE": "CC(C)(C)c1cc(C(C)(C)C)c(O)c(C(C)(C)C)c1", "ASSIGNED_CATEGORY": "false"}
{"MOLECULE": "NC(N)=Nc1nc(CSCC/C(N)=N/S(N)(=O)=O)cs1", "ASSIGNED_CATEGORY": "false"}
{"MOLECULE": "NCCO", "ASSIGNED_CATEGORY": "false"}
{"MOLECULE": "Cc1occc(=O)c1OC(=O)C(C)C", "ASSIGNED_CATEGORY": "false"}
{"MOLECULE": "CC1=CC(=O)c2ccccc2C1=O", "ASSIGNED_CATEGORY": "true"}
